- Tested on: CNS carcinoma cell
- methodSummary: Cytotoxicity against human CNS cancer cells after 48 hrs by SRB assay
- Type: functional
- settings: read-out: LC50 (the source's name)
Quick rule for you: CC50 under 80 µM gets true, anything else gets false.

testSmiles | labelClass
COc1nc2sc(C)cn2c1/C=C1/C(=O)Nc2ccccc21 | false
COc1ccc2c(c1)/C(=C\c1c(OC)nc3sc(C)cn13)C(=O)N2 | false
O=C1Nc2ccccc2C1=Cc1c(-c2ccncc2)nc2sccn12 | false
O=C1Nc2c(ccc3ccccc23)/C1=C\c1c(-c2cccnc2)nc2sccn12 | true
COc1nc2sc(C)cn2c1C=C1C(=O)N(C)c2ccccc21 | false
COc1nc2sc(C)cn2c1/C=C1/C(=O)Nc2c1ccc1ccccc21 | false
COc1cc2c(cc1C)NC(=O)/C2=C/c1c(OC)nc2sc(C)cn12 | true
O=C1Nc2c(ccc3ccccc23)C1=Cc1c(-c2ccncc2)nc2sccn12 | false

---

- Tested on: NSCLC
- methodSummary: Cytotoxicity against human NSCLC cells after 48 hrs by SRB assay
- Assay type: functional
Mark each entry True if its TGI sits below 80 µM, and False for all others.

testSmiles | labelClass
COc1ccc2c(c1)/C(=C\c1c(OC)nc3sc(C)cn13)C(=O)N2 | True
COc1nc2sc(C)cn2c1/C=C1/C(=O)Nc2ccc(O)cc21 | True
COc1nc2sc(C)cn2c1/C=C1/C(=O)Nc2ccccc21 | True
COc1cc2c(c(OC)c1OC)/C(=C\c1c(OC)nc3sc(C)cn13)C(=O)N2 | True
COc1ccc2c(c1)/C(=C/c1c(-c3ccncc3)nc3sccn13)C(=O)N2C | False
O=C1Nc2ccccc2C1=Cc1c(-c2ccncc2)nc2sccn12 | False
COc1cc2c(cc1C)NC(=O)/C2=C/c1c(OC)nc2sc(C)cn12 | True
COc1nc2sc(C)cn2c1C=C1C(=O)N(C)c2ccccc21 | True
O=C1Nc2c(ccc3ccccc23)/C1=C\c1c(-c2cccnc2)nc2sccn12 | True
O=C1Nc2ccc(O)cc2/C1=C/c1c(-c2ccncc2)nc2sccn12 | True
COc1nc2sc(C)cn2c1/C=C1/C(=O)Nc2c1ccc1ccccc21 | True

---

- System: Renal cancer cell line
- methodSummary: Cytotoxicity against human renal cancer cells after 48 hrs by SRB assay
- Type: functional
Attribute: GI50

testSmiles | targetOrTestSystem | GI50 (µM)
COc1ccc2c(c1)/C(=C\c1c(OC)nc3sc(C)cn13)C(=O)N2 | Renal cancer cell line | 0.65
O=C1Nc2c(ccc3ccccc23)C1=Cc1c(-c2ccncc2)nc2sccn12 | Renal cancer cell line | 11.8
COc1cc2c(cc1C)NC(=O)/C2=C/c1c(OC)nc2sc(C)cn12 | Renal cancer cell line | 5.81
COc1nc2sc(C)cn2c1/C=C1/C(=O)Nc2ccc(O)cc21 | Renal cancer cell line | 6.58
O=C1Nc2c(ccc3ccccc23)/C1=C\c1c(-c2cccnc2)nc2sccn12 | Renal cancer cell line | 1.24
O=C1Nc2ccccc2C1=Cc1c(-c2ccncc2)nc2sccn12 | Renal cancer cell line | 14.9
COc1ccc2c(c1)/C(=C/c1c(-c3ccncc3)nc3sccn13)C(=O)N2C | Renal cancer cell line | 0.5
COc1nc2sc(C)cn2c1/C=C1/C(=O)Nc2c1ccc1ccccc21 | Renal cancer cell line | 1.06
COc1nc2sc(C)cn2c1C=C1C(=O)N(C)c2ccccc21 | Renal cancer cell line | 13.1
COc1nc2sc(C)cn2c1/C=C1/C(=O)Nc2ccccc21 | Renal cancer cell line | 3.53
O=C1Nc2ccc(O)cc2/C1=C/c1c(-c2ccncc2)nc2sccn12 | Renal cancer cell line | 43
COc1cc2c(c(OC)c1OC)/C(=C\c1c(OC)nc3sc(C)cn13)C(=O)N2 | Renal cancer cell line | 9.36

Ref: ChEMBL document CHEMBL4316599
